Assay: In vivo testing in rats: growth, feed conversion and carcass composition
Parameters: species or system rat (male Charles River CD)
Conditions: Test 2; control 7.5; in diet, dose equivalent to 20 ppm clenbuterol (clenbuterol: 10)
Gain values for the compounds below.
Supply the numeric figure in g/day, leaving out any unit text.

Use these answered entries as a reference point.
>>> df
                                   compound  unit_spec  reading
0  Cn1c(=O)c2c(ncn2CCCNCC(O)c2cc(O)cc(O)c2)n(C)c1=O (stereo not shown)      g/day      8.3
1  CC(C)(C)NCC(O)c1cc(Cl)c(N)c(Cl)c1 (stereo not shown)      g/day      8.2
2  CC(CCc1ccccc1)NCC(O)c1ccc(N)nc1 (stereo not shown)      g/day      8.4

Now for the compound whose Gain we want.
For the compound CC(C)(C)NCC(O)c1cc(Br)no1 (stereo not shown) , what Gain is on record?
8.4
